assay-metric: melting point

Exercise: Entry under review: CCS(=O)(=O)C(F)(F)C(O)(Cn1cncn1)c1ccc(F)cc1F (stereo unspecified) . Reported melting point?
Solution: 117 to 118 °C

Exercise: Field request: melting point | item: Cc1ccc2c(c1)CCO2
Solution: 45 to 48 °C

Exercise: Tell me the measured melting point of COC(=O)COc1ccc(NC(=O)c2cc(C(C)C)c(C(C)C)o2)cc1 , please.
Solution: 104 to 105 °C

Exercise: Bench note: what melting point did CCCCCCCCC=CCCCCCCCCCCCC(=O)Nc1ccc(Cl)cc1C(=O)O show?
Solution: 159 to 162 °C

Exercise: Field request: melting point | item: O=S(=O)(CCCc1nc(-c2ccc(F)cc2)c(-c2ccncc2)[nH]1)c1ccccc1
Solution: 109 to 110 °C

Exercise: # melting point lookup, item Fc1ccc2c(c1)NCc1c(-c3noc(C4CC4)n3)ncn1-2
Solution: 263 to 265 °C

====

Assignment: determine reported melting point for the given molecules.

Exercise: Data request, read-out melting point, for COC(=O)c1cc(C(=O)c2c(C)c(OC)c3ccccn23)ccc1NC(=O)NCC(=O)N(C)C
Solution: 228 °C

Exercise: If you can, please state the reported melting point value of CC(C)c1cc(C#N)cc(C(=O)Nc2ccn(C)n2)n1 .
Solution: 174 °C

Exercise: Request the reported melting point associated with COc1ccc(C(=O)c2cnoc2C)cc1
Solution: 78 to 79 °C

Exercise: Need melting point, item CN1CCC(c2c[nH]c3ccc(C(=O)c4ccc(N(C)C)cc4)cc23)CC1
Solution: 103 to 104 °C

Exercise: # query: melting point of entry CSc1nc(Oc2ccccc2)c(C(=O)O)c(Oc2ccccc2)n1
Solution: 97 to 98 °C

Exercise: # get_value(readout='melting point', item= CC(C)Cc1nc2ccc(OC(C)(C)C)cc2c(-c2ccccc2F)c1C#N )
Solution: 127 to 129 °C

Exercise: Fill blank: measured melting point of the molecule Cc1c[nH]c(=O)c(NC(=O)c2ccccc2F)c1 is ____.
Solution: 230 to 232 °C

Exercise: Can you share its melting point? I mean this molecule: CCc1nc(OC)c(NC(=O)N2CCN(c3cc(C)cc(C)c3)CC2)cc1C(=O)Nc1cc(CO)cc(Nc2c3ccccc3nc3ccccc23)c1
Solution: 178 to 180 °C

Exercise: // lookup melting point for COc1ccc(N2CCN(c3c(C)c(C)c4c(c3C)C(NCc3ccccc3)C(C)(C)O4)CC2)cc1 (centres undefined)
Solution: 93 to 95 °C

Exercise: What does the data say about its melting point? Entry: N#CCN[C@H]1CCc2c(F)cc(F)cc2C1
Solution: 73 to 76 °C

Exercise: // returns reported melting point for input ON=C(Cc1cnccn1)c1ccc(Cl)cc1
Solution: 134 °C

Exercise: Record request: melting point value, item Clc1ccc(-c2ncn(CCCN3CCOCC3)c2-c2ccncc2)cc1Cl
Solution: 106 °C

Exercise: Bench note: what melting point did Cc1ccc(-c2ccc(-c3nnn(CCCCCCc4cccnc4)n3)cc2)cc1C show?
Solution: 63 to 64 °C

Exercise: Given the molecule O=Cc1ccc(OCc2ccccc2)c(O)c1 , what is its reported melting point?
Solution: 118 to 120 °C

Exercise: Given the entry CC(C)(C)OCC1C(=O)C(C)(C)C(=O)N1c1ccc(C#N)c(Cl)c1 (centres undefined) , report its measured melting point.
Solution: 124 to 125 °C

Exercise: Quick check: melting point of COc1cccc2c1nc(C(F)F)n2-c1nc(-c2ccc(N)nc2)nc(N2CCOCC2)n1 ?
Solution: 259 to 261 °C

Exercise: If you can, please state the reported melting point value of O=C1C(=O)N(C(c2ccccc2)(c2ccccc2)c2ccccc2)CCN1Cc1cc(=O)c(OCc2ccccc2)cn1Cc1ccccc1 .
Solution: 165 to 168 °C

Exercise: May I ask what melting point has been recorded for O=C1CCc2cc(Cl)c(S(=O)(=O)NCc3ccccc3)cc21 ?
Solution: 228 to 231 °C

Exercise: Dear colleague, I am looking for the recorded melting point of the following molecule: COc1ccc(CC(Br)C(N)=O)cc1C(=O)NCc1ccc(C(F)(F)F)cc1 (centres undefined)
Solution: 192 to 193 °C
